In this section, each of the compounds is paired with its reported cytotoxicity at 72 h, 10 µM.
# protocol description: Cytotoxicity against human NNC2 cells assessed as decrease in GAPDH RNA level at 10 uM after 3 days by RT-PCR
# Format: cell-based
# recorded conditions: NNC2 cells, read-out: INH
Could you give me the number in %? Just the number is fine.

{"compound structure string": "CCCCn1c(=O)c2ccccc2c2ccc(C)cc21", "result unit": "%", "cytotoxicity at 72 h, 10 µM": 70.7}
{"compound structure string": "CCCCn1c(=O)c2cc(C)ccc2c2ccccc21", "result unit": "%", "cytotoxicity at 72 h, 10 µM": 88.8}

Give the measured cytotoxicity at 72 h, 10 µM of `CCCCn1c(=O)c2cccc(C)c2c2ccccc21` .
94.9

Give the measured cytotoxicity at 72 h, 10 µM of `CCCCn1c(=O)c2ccccc2c2c(C)cccc21` .
85.2

Give the measured cytotoxicity at 72 h, 10 µM of `CCCCn1c(=O)c2ccccc2c2cc(C)ccc21` .
98.5

----------
# protocol description: Cytotoxicity against human NNC2 cells assessed as decrease in GAPDH RNA level after 3 days by RT-PCR
# Assay type: cell-based
# recorded conditions: NNC2 cells
reported metric: CC50 at 72 h

Known results for molecules:
{"compound structure string": "CCCCn1c(=O)c2ccccc2c2cc(F)ccc21", "CC50 at 72 h": "> 50 µM"}
{"compound structure string": "CCCCn1c(=O)c2ccccc2c2cc3c(cc21)C(C)(C)CCC3(C)C", "CC50 at 72 h": "27.3 µM"}
{"compound structure string": "CCCCn1c(=O)c2ccccc2c2cc(CC)ccc21", "CC50 at 72 h": "40.5 µM"}

// next item, CC50 at 72 h requested
Give the measured CC50 at 72 h of `CCn1c(=O)c2ccccc2c2cc(C(O)(C(F)(F)F)C(F)(F)F)ccc21` .
> 40 µM
